- studyTarget: T1, Clostridium difficile toxin A, soluble full-length (TechLab) (Clostridium difficile, UniProt P16154 1-2710)
- T1 construct: also called tcdA
- assayProtocol: SPR Biacore T200, 37C, mAb capture
property: T½ (h)
Answers are plain numbers, in h.

Some binders with recorded T½:
H1H3350P (antibody, V domains shown) VH: QVQLVESGGGLVKPGGSLTLSCVASGFTFTDYYISWIRQAPGKGLEWISYIGTGGAAKYYADSVKGRFTVSRDNAKNSLYLLMNNLRAEDTAVYYCARDLGIFDLWGQGTLVTVSS VL: EIVMTQSPATLSVSPGERATLSCRASQSVSSSLAWYHQKPGQAPRLLIHGVSTRATGIPARFSGTGSGTEFTLTISSLQSEDFAVYYCQQYHNWPPYTFGQGTKLEIKR
47.6
H1H3117N (antibody, V domains shown) VH: EVQLLESGGGLAQPGGSLRLSCAASGFNFGTHDMSWVRQAPGKGLEWVSGLTSTGGSASSADSVKGRFTISRDNSKNILYLQMNSLRAEDTAVYYCAKTFNWNSYFDYWGQGTLVTVSS VL: EIVLTQSPGTLSLSPGERATLSCRASQSISTYYLAWYQQKPDQPPRLLIYGTSSRATGIPDRFSGSGSGTDFTLTISRLDPEDFAVYYCQQYGNSLYTFGQGTKLEIK
5.53

Here is another binder to look at.
// T½ value for Control I (anti-toxin A antibody with the variable domains of the "3D8" antibody of U.S. Pat. No. 7,625,559 and US2005/0287150) (antibody, human IgG1, kappa, V domains shown, also called control 1; Control Antibody I) VH: QVQLVESGGGVVQPGRSLRLSCAASGFSFSNYGMHWVRQAPGKGLEWVALIWYDGSNEDYTDSVKGRFTISRDNSKNTLYLQMNSLRAEDTAVYYCARWGMVRGVIDVFDIWGQGTVVTVSS VL: DIQMTQSPSSVSASVGDRVTITCRASQGISSWLAWYQHKPGKAPKLLIYAASSLQSGVPSRFSGSGSGTDFTLTISSLQPEDFATYYCQQANSFPWTFGQGTKVEIKR : 0.967
